Target: hLDH5 (LDH-A) (Homo sapiens, UniProt P00338)
Assay: Enzyme inhibition of human lactate dehydrogenase isoform 5
Conditions: ranges of values; room temperature, pH 7.4; read-out: inhibitory activity against hLDH5 (IC50)
pIC50: −log10 of the molar value.
Parameter: pIC50

These recorded examples may help you get a feel for the data.
INSERT INTO assay_data (molecule_smiles, parameter, recorded_result) VALUES
  ('COC(=O)c1cc2c(C(F)(F)F)cc(-c3ccc(Cl)cc3Cl)cc2n1O[C@@H]1O[C@H](CO)[C@@H](O)[C@H](O)[C@H]1O', 'pIC50', '3.30 to 4.30'),
  ('CCCCOC(=O)c1cc2c(C(F)(F)F)cc(-c3ccc(Cl)cc3Cl)cc2n1O[C@@H]1O[C@H](COC(C)=O)[C@@H](OC(C)=O)[C@H](OC(C)=O)[C@H]1OC(C)=O', 'pIC50', '< 4.00');

Any idea what pIC50 was measured for `COC(=O)c1cc2c(C(F)(F)F)cc(-c3ccc(Cl)cc3Cl)cc2n1O[C@@H]1O[C@H](COC(C)=O)[C@@H](OC(C)=O)[C@H](OC(C)=O)[C@H]1OC(C)=O` ?
< 4.00

* * *

IC50 reference
System: IGROV-1
Assay: Inhibition of tumor cell growth method (a), sulforhodamine B assay
Type: cell-based
Conditions: Homo sapiens; IGROV-1, 72 hours, SRB

Any idea what IC50 was measured for O=C(O)c1cc2c(C(F)(F)F)cc(-c3ccccc3)cc2n1O [reference compound] ?
123 µM

Now try COC(=O)c1cc2c(C(F)(F)F)cc(-c3ccccc3)cc2n1O[C@@H]1O[C@H](CO)[C@@H](O)[C@H](O)[C@H]1O [Example 3] .
< 31 µM

Now try CCOC(=O)c1cc2c(C(F)(F)F)cc(-c3ccccc3)cc2n1O [Example 1] .
< 31 µM

* * *

Molecular target: hLDH5 (LDH-A) (Homo sapiens)
Construct: purchased LEEBIO (USA)
Test: Enzyme inhibition of human lactate dehydrogenase isoform 5
Format: biochemical
Conditions: ranges of values; room temperature, pH 7.4; read-out: inhibitory activity against hLDH5 (IC50)
IC50 reference

These recorded examples may help you get a feel for the data.
INSERT INTO assay_data (compound, recorded_result) VALUES
  ('CN1CCC(OC(=O)c2cc3c(C(F)(F)F)cc(-c4ccc(Cl)cc4Cl)cc3n2O)CC1 [Example 58]', '> 100 µM'),
  ('O=C(OCc1ccc(C(F)(F)F)cc1)c1cc2c(C(F)(F)F)cc(-c3ccc(Cl)cc3Cl)cc2n1O [Example 64]', '0.01 to 1 µM'),
  ('CN1CCC(OC(=O)c2cc3c(C(F)(F)F)cc(-c4ccccc4)cc3n2O)CC1 [Example 57]', '> 100 µM');

Any idea what IC50 was measured for CCOC(=O)c1cc2c(C(F)(F)F)cc(-c3ccccc3)cc2n1O[C@@H]1O[C@H](CO)[C@@H](O)[C@H](O)[C@H]1O [Example 6] ?
50 to 500 µM

Now try CCCCOC(=O)c1cc2c(C(F)(F)F)cc(-c3ccc(Cl)cc3Cl)cc2n1O [Example 33] .
0.01 to 1 µM

Now try COc1ccc(COC(=O)c2cc3c(C(F)(F)F)cc(-c4ccc(Cl)cc4Cl)cc3n2O)cc1 [Example 60] .
0.01 to 1 µM

Now try COC(=O)c1cc2c(C(F)(F)F)cc(-c3ccc(Cl)c(Cl)c3)cc2n1O [Example 21] .
> 100 µM

Now try Cc1c(C(=O)O)n(O)c2cc(-c3ccc(Cl)cc3Cl)cc(C(F)(F)F)c12 [Example 26] .
1 to 10 µM

Now try CC(C)OC(=O)c1cc2c(C(F)(F)F)cc(-c3ccc(Cl)cc3Cl)cc2n1O[C@@H]1O[C@H](CO)[C@@H](O)[C@H](O)[C@H]1O [Example 45] .
> 100 µM

Now try COC(=O)c1c(C)c2c(C(F)(F)F)cc(-c3ccccc3)cc2n1O [Example 16] .
1 to 10 µM
